Catalogue of compounds with associated cytotoxicity at 10 µM
Experiment: Toxicity liver stage against HepG2, at 10uM
Type: cell-based
Set-up: test concentration 10 uM, cell line HepG2-A16-CD81EGFP
Conditions: human, HepG2-A16-CD81EGFP cells; read-out: INHIBITION
Field: numeric (%). Do not append units.

Ask | Which value of cytotoxicity at 10 µM has been reported for "COc1c(CNCCC(=O)Nc2cccc(C)n2)c(C)nn1C" in the records?
Reply | 12.6

Ask | Try COCCN(C)C(C)Cc1ccccc1OC (configuration not stated) next.
Reply | -5.34

Ask | Try "FC(F)(F)Cn1cc(NCc2cscn2)cn1" next.
Reply | -8.51

Ask | Try "Cc1nc(CN2CCN(C)C(=O)C23CCN(CC2CCCC2)CC3)cs1" next.
Reply | 11

Ask | Try Cc1nc(C)n(CC2CCCN(CCC(=O)NC3CCCCC3)C2)n1 (configuration not stated) next.
Reply | -3.39

###

Catalogue of compounds with associated cytotoxicity at 10 µM
Assay: Toxicity liver stage against HepG2, at 10uM
Type: cell-based
Design: test concentration 10 uM, cell line HepG2-A16-CD81EGFP
Conditions: human, HepG2-A16-CD81EGFP cells; read-out: INHIBITION
Field: numeric (%). Do not append units.

OC[C@H]1CCCN1c1nccc(-c2c[nH]nc2C2CCCCC2)n1 : -2.5

Ask | Which value of cytotoxicity at 10 µM has been reported for "O=C(CCn1ccc2ccccc21)N1CCC(Nc2cccnn2)CC1" in the records?
Reply | 3.79

Ask | Try CC(Cn1ccnc1)NCc1cc(Br)c2c(c1)OCO2 (configuration not stated) next.
Reply | 12.9

Ask | Try O=C(NCC1CC1)C1=NOC2(CCN(S(=O)(=O)c3ccc(F)cc3)C2)C1 (configuration not stated) next.
Reply | 3.25

Ask | Try "O=C(Cc1csc(-c2ccco2)n1)N1CCN(CCO)CC1" next.
Reply | -0.337

Ask | Try CN(c1ncnc2ccccc12)C1CCCN(c2cccnn2)C1 (configuration not stated) next.
Reply | 19.5

Ask | Try CCOc1ccc2[nH]c(=O)c(CN3CCCC3c3ccccn3)cc2c1 (configuration not stated) next.
Reply | -7.04

###

Test: Toxicity liver stage against HepG2, at 10uM
Format: cell-based
Design: test concentration 10 uM, cell line HepG2-A16-CD81EGFP
Details: human, HepG2-A16-CD81EGFP cells; read-out: INHIBITION
Catalogue of compounds with associated cytotoxicity at 10 µM
Field: numeric (%). Do not append units.

CN(C)c1ccc(C(=O)Nc2ccn(Cc3ccccn3)n2)cn1 : -0.677
COc1ccccc1-c1cccc(C2CCCN(C3CCOCC3)C2)n1 (configuration not stated) : 5.7
Cc1noc(C)c1CN1C[C@@H](C(=O)O)[C@H](C(C)C)C1 : 3.51

Ask | Which value of cytotoxicity at 10 µM has been reported for CNc1nc(N2CCC3(CCCNC3=O)C2)nc2c1CCC2 (configuration not stated) in the records?
Reply | -4.95

Ask | Try "c1ccc(CN2CCOC3(CCN(c4ncccn4)CC3)C2)nc1" next.
Reply | -2.42

Ask | Try Cc1nc(-c2ccccc2)sc1CSC(C)C(N)=O (configuration not stated) next.
Reply | -6.55

Ask | Try CC(C)(C)n1ncc2c1NC(=O)CC2c1ccsc1 (configuration not stated) next.
Reply | 20.4

Ask | Try "Cc1cnc(N2C[C@@H]3[C@@H](C2)OCC(=O)N3CC(C)C)nc1" next.
Reply | -0.173

###

Assay: Toxicity liver stage against HepG2, at 10uM
Type: cell-based
Design: test concentration 10 uM, cell line HepG2-A16-CD81EGFP
Settings: human, HepG2-A16-CD81EGFP cells; read-out: INHIBITION
property_name: cytotoxicity at 10 µM (%)
Field: numeric (%). Do not append units.

CC(C)(C)NC(=O)N1CCC(NC(=O)Cc2cccnc2)CC1 : 0.355

Ask | Which value of cytotoxicity at 10 µM has been reported for "COc1ncc(C(F)(F)F)c(C(=O)O)c1Cl" in the records?
Reply | 16.7

Ask | Try "CS(=O)(=O)N1CCC(Nc2ccc(C#N)c(C(F)(F)F)c2)CC1" next.
Reply | 6.85

###

Test: Toxicity liver stage against HepG2, at 10uM
Type: cell-based
Design: test concentration 10 uM, cell line HepG2-A16-CD81EGFP
Details: human, HepG2-A16-CD81EGFP cells; read-out: INHIBITION
Catalogue of compounds with associated cytotoxicity at 10 µM
For clarity, give the value followed by its unit.

c1cc(CCN2CCC(NCc3ccsc3)CC2)ccn1 : -11%
c1cn(Cc2nnc(C3CCN(c4nccs4)CC3)n2C2CC2)cn1 : -7.6%

Ask | Which value of cytotoxicity at 10 µM has been reported for "COc1c(C(=O)NCc2cnn(C)c2C)nnn1Cc1ccccc1" in the records?
Reply | -11.3%

Ask | Try Cc1ncc(CN2CCCC(c3cc(C(N)=O)[nH]n3)C2)s1 (configuration not stated) next.
Reply | -27.7%

Ask | Try CCNC(=O)N(Cc1cccc(OC)c1)C1CCC(O)CC1 (configuration not stated) next.
Reply | -4.83%

Ask | Try COCCC(=O)N1CCCC2(CCN(c3ccccc3)C2=O)C1 (configuration not stated) next.
Reply | -1.66%

Ask | Try "CC(C)CC(=O)N1CC(=O)c2sc(NC3CCCCC3)nc2C1" next.
Reply | -7%

Ask | Try Cc1cc(=O)[nH]c(SCC(=O)N(C)CC2Cc3ccccc3CN2C)n1 (configuration not stated) next.
Reply | -1.96%

Ask | Try Cc1noc(C(C)N2CCN(CCN3CCCC3=O)CC2)n1 (configuration not stated) next.
Reply | -13.4%

###

Catalogue of molecules with associated cytotoxicity at 10 µM
Assay: Toxicity liver stage against HepG2, at 10uM
Type: cell-based
Set-up: test concentration 10 uM, cell line HepG2-A16-CD81EGFP
Conditions: human, HepG2-A16-CD81EGFP cells; read-out: INHIBITION
Field: numeric (%). Do not append units.

Answered examples (5):
CCN1C[C@H]2CCN(C(=O)Nc3ccccc3C)CC[C@H]2S1(=O)=O : 1.08
CN(C)c1ccc(C(CNS(=O)(=O)c2cccs2)N2CCCC2)cc1 (centres undefined) : 2.31
c1ccc(CCc2n[nH]c(C3CCC3)n2)cc1 : -3.58
COCCO[C@H]1CCN(c2cc(OC)ncn2)[C@H]1Cc1cnn(C)c1 : -133
CN1N=C(C(=O)N2CCCCC2)S(=O)(=O)c2ccccc21 : -183

Let's switch to this molecule now.
Ask | Which value of cytotoxicity at 10 µM has been reported for COc1cccc(CNCC2CCN(CC(C)O)CC2)c1OC (centres undefined) in the records?
Reply | -0.191

###

Experiment: Toxicity liver stage against HepG2, at 10uM
Format: cell-based
Set-up: test concentration 10 uM, cell line HepG2-A16-CD81EGFP
Conditions: human, HepG2-A16-CD81EGFP cells; read-out: INHIBITION
Catalogue of compounds with associated cytotoxicity at 10 µM
For clarity, give the value followed by its unit.

Answered examples (3):
c1csc(CN2CCc3ncnc(C4CCOC4)c3CC2)n1 (stereo unspecified) : 4.53%
CN(C)CCNC(=O)c1ccccc1NC(=O)c1cc(Cl)ccc1Cl : -1.02%
Cc1cc(C)nc(N2CCC(Cn3cc(C(=O)N(C)C)cn3)CC2)n1 : 6.28%

Ask | Which value of cytotoxicity at 10 µM has been reported for CCN1CC2(CC1=O)CN(C(C)=O)CCN(C(=O)c1ccco1)C2 (stereo unspecified) in the records?
Reply | -8.92%

Ask | Try Cc1noc(C)c1CC(=O)NCC(C)N1CCOCC1 (stereo unspecified) next.
Reply | -52%

Ask | Try "CN1C(=O)CCC12CCN(S(=O)(=O)c1ccccc1)CC2" next.
Reply | -9.75%

###

Catalogue of compounds with associated cytotoxicity at 10 µM
Experiment: Toxicity liver stage against HepG2, at 10uM
Type: cell-based
Parameters: test concentration 10 uM, cell line HepG2-A16-CD81EGFP
Conditions: human, HepG2-A16-CD81EGFP cells; read-out: INHIBITION
Field: numeric (%). Do not append units.

Answered examples (4):
O=C(CC1CC1)N1C[C@H]2CN(CC3CC3)C(=O)[C@H]2C1 : 3.91
CC1c2ncc(COCC3CC3)n2CCN1S(=O)(=O)N(C)C (stereo unspecified) : 18.4
Cc1cnn(CC(=O)N2CCC3(CCC(=O)N(C4CCCC4)C3)CC2)c1 : 3.03
CCC[C@@H]1CN(Cc2ccc(N(C)C)nc2)C[C@H]1N(C)C : -15.1

Ask | Which value of cytotoxicity at 10 µM has been reported for "Cc1noc(C)c1C(=O)N1CCCN(Cc2cscn2)CC1" in the records?
Reply | -1.56

Ask | Try "CC(C)CCn1nc(CNc2ccc(Br)cc2)nc1O" next.
Reply | 9.84
